assay: chemical genetic growth profiling, strain panel (AID 1159580);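 note: tested at 20 µM; growth read once vehicle control cultures reached saturation at 30 °C; lower values mean less growth of the strain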; settings: S. cerevisiae deletion strains, growth OD, locus YEL061C, strain CIN8
Screen size: about 5,500 compounds; about 2,000 (36%) were called active. Roughly 18% stayed inconclusive and do not appear here. Cut-off read from the data, not from the text of the source: active = normalized growth mostly below about 0.91 (no sharp cut-off); inconclusive = no clear call, values can overlap the other calls; inactive = mostly above about 0.92. The list shows a part of the results.
Outcome codes: active, inactive

molecule=O=[N+]([O-])c1ccc(SC2=NCCN2)c(Cl)c1 answerlabel=inactive
molecule=Cc1ccc2cc3c(ccc4ccccc43)c3c2c1CC3 answerlabel=inactive
molecule=Cc1ccsc1/C=C/C1=NCCCN1C answerlabel=inactive
molecule=Nc1nc2ncc(C(=O)O)nc2c(=O)[nH]1 answerlabel=inactive
molecule=NC[C@H](O)c1ccc(O)c(O)c1 answerlabel=inactive
molecule=c1ccc2c3c([nH]c2c1)CNCC3 answerlabel=inactive
molecule=OC[C@@H](O)[C@@H](O[C@@H]1O[C@H](CO)[C@@H](O)[C@H](O)[C@H]1O)[C@H](O)[C@@H](O)CO answerlabel=inactive
molecule="CC(=O)c1c(O)c(C)c(O)c2c1OC1=CC(=O)C(C(C)=O)C(=O)C12C (centres undefined)" answerlabel=inactive
molecule="O=C1CCCC2C3CC(CN12)[C@@H]1CCCCN1C3 (some centres undefined)" answerlabel=inactive
molecule=O=C(CCCCCCCCCCCCC1CCCC1)Nc1ccc(S(=O)(=O)c2ccc(NC(=O)CCCCCCCCCCCCC3CCCC3)cc2)cc1 answerlabel=inactive
molecule=O=C(/C=N\Nc1ccccc1)Nc1ccccc1C(=O)O answerlabel=inactive
molecule=C=C(CC)C(=O)c1ccc(OCC(=O)O)c(Cl)c1Cl answerlabel=inactive
molecule=CCCc1occc(=O)c1/C=C/O answerlabel=inactive
molecule=CCN(CC)CCOc1ccc2c(c1)C(=O)c1cc(OCCN(CC)CC)ccc1-2 answerlabel=inactive
molecule=O=C(O)c1cccnc1Nc1cccc(C(F)(F)F)c1 answerlabel=inactive
molecule=COc1cccc(C2C3=C(CC(C)(C)CC3=O)OC3=C2C(=O)CC(C)(C)C3)c1O answerlabel=inactive
molecule=COc1ccc(NS(=O)(=O)c2c(C)noc2C)cc1 answerlabel=inactive
molecule="CC(=O)O[C@@H]1C[C@@]2(C)[C@H](c3ccoc3)C[C@H]3O[C@]32[C@]2(C)C(=O)C(O)=C3C(C)(C)C(=O)C=C[C@]3(C)C12 (some centres undefined)" answerlabel=inactive
molecule="CC(C)NCC(O)c1ccc(O)c(O)c1 (centres undefined)" answerlabel=inactive
molecule="CC(=O)O[C@H]1C[C@@H](OC(C)=O)C(C)(C)C2C[C@@H](OC(C)=O)[C@@]3(C)C4=CC(=O)O[C@@H](c5ccoc5)[C@]4(C)CCC3[C@]21C (some centres undefined)" answerlabel=inactive
molecule="CCCCC(CC)CN1CN(CC(CC)CCCC)CC(C)(N)C1 (centres undefined)" answerlabel=active
molecule=COC(=O)Oc1ccccc1C(=O)O answerlabel=inactive
molecule="COc1ccccc1OCCNCC(O)COc1cccc2[nH]c3ccccc3c12 (centres undefined)" answerlabel=inactive
molecule=CC(=O)Nc1cc([As](=O)(O)O)ccc1O answerlabel=inactive
molecule=Oc1c(Br)cc(Br)c2cccnc12 answerlabel=active
molecule=Nc1ccc(S(=O)(=O)Nc2ccc(Cl)nn2)cc1 answerlabel=inactive
molecule="CC1(C)C(O)CC(O)C2(C)C1CC(O)C1(C)C2CCC2(C)C(c3ccoc3)CC3OC321 (centres undefined)" answerlabel=inactive
molecule=C#CCOc1c(Cl)cccc1Cl answerlabel=inactive
molecule=O=[N+]([O-])c1ccc2nsnc2c1 answerlabel=active
molecule=COc1cc(C(=O)NCc2ccc(OCCN(C)C)cc2)cc(OC)c1OC answerlabel=inactive
molecule=c1ccc2c(c1)CCc1c-2[nH]c2ccccc12 answerlabel=active
molecule="C1CCN2CC3CC(CN4CCCCC34)C2C1 (centres undefined)" answerlabel=inactive
molecule=CCN(CC)CCOc1ccc(/C(=C(\Cl)c2ccccc2)c2ccccc2)cc1 answerlabel=active
molecule=COc1ccc(C(Cl)=C(c2ccc(OC)cc2)c2ccc(OC)cc2)cc1 answerlabel=inactive
molecule=Oc1ccc(Cl)c2cccnc12 answerlabel=active
molecule=Cc1[nH]ncc1-c1ccccc1 answerlabel=inactive
molecule=CCOP(=S)(OCC)SCn1c(=O)oc2cc(Cl)ccc21 answerlabel=inactive
molecule=COC(=O)c1cc([N+](=O)[O-])ccc1NC(C)=O answerlabel=inactive
molecule=Cc1oc(S(=O)(=O)N(C)C)cc1C(=O)O answerlabel=inactive
